- Test system: Streptococcus pyogenes C203
- Measurement notes: In vivo therapeutic efficacy in experimental pulmonary infection in mice
- Measurement conditions: CD1 mice, single oral dose 24 hours before intranasal infection, death observed for 7 days, probit analysis
Result type: PD50 24 hours before infection (µmol/kg)
Number in µmol/kg, nothing else.

Some compounds with recorded PD50 24 hours before infection:
Structure	PD50 24 hours before infection / µmol/kg
CC[C@H]1OC(=O)[C@H](C)[C@@H](O[C@H]2C[C@@](C)(OC)[C@@H](O)[C@H](C)O2)[C@H](C)[C@@H](O[C@@H]2O[C@H](C)C[C@H](N(C)C)[C@H]2O)[C@](C)(O)C[C@@H](C)/C(=N\OCCNCCCCCCNCc2csc(-c3cccs3)n2)[C@H](C)[C@@H](O)[C@]1(C)O	14.3
CC[C@H]1OC(=O)[C@H](C)[C@@H](O[C@H]2C[C@@](C)(OC)[C@@H](O)[C@H](C)O2)[C@H](C)[C@@H](O[C@@H]2O[C@H](C)C[C@H](N(C)C)[C@H]2O)[C@](C)(O)C[C@@H](C)/C(=N\OCCN(C)CCCCCCNCc2csc(-n3ccnc3)n2)[C@H](C)[C@@H](O)[C@]1(C)O	16.0
CC[C@H]1OC(=O)[C@H](C)[C@@H](O[C@H]2C[C@@](C)(OC)[C@@H](O)[C@H](C)O2)[C@H](C)[C@@H](O[C@@H]2O[C@H](C)C[C@H](N(C)C)[C@H]2O)[C@](C)(O)C[C@@H](C)/C(=N\OCCNCCCCCCNCc2nc(-c3nccs3)cs2)[C@H](C)[C@@H](O)[C@]1(C)O	15.5

Then this compound:
Inquiry: Which PD50 24 hours before infection value belongs to CC[C@H]1OC(=O)[C@H](C)[C@@H](O[C@H]2C[C@@](C)(OC)[C@@H](O)[C@H](C)O2)[C@H](C)[C@@H](O[C@@H]2O[C@H](C)C[C@H](N(C)C)[C@H]2O)[C@](C)(O)C[C@@H](C)/C(=N\OCCN(C)CCCCCCNCc2csc(-n3cccn3)n2)[C@H](C)[C@@H](O)[C@]1(C)O ?
Reply text: 25.4
